Values from ChEMBL document CHEMBL4680139

Assay: Inhibition of bovine brain tubulin polymerisation measured by turbidometric method
Assay type: tissue-based, Bos taurus
A collection of compounds and their measured pIC50
Note: pIC50 values are expressed as the negative base-10 logarithm of concentration in M.

Some compounds with recorded pIC50:
{"compound": "COc1cc([C@@H]2c3cc4c(cc3[C@H](O)[C@H]3COC(=O)[C@H]23)OCO4)cc(OC)c1OC", "testResult": 6.14}
{"compound": "C=C(c1ccc(OC)c(OC)c1OC)c1cccc2ccccc12", "testResult": 5.04}
{"compound": "COc1ccc(C(c2ccccc2OCCN2CCCC2)c2cccc3ccccc23)c(OC)c1OC (stereo not given)", "testResult": 5.25}
{"compound": "COc1ccc(/C(=N/O)c2cccc3ccccc23)c(OC)c1OC", "testResult": 5.25}

// below: pIC50 requested for another compound
Can you look up the measured pIC50 of COc1ccc(C(O)(Cc2ccccc2)c2cccc3ccccc23)c(OC)c1OC (stereo not given) for me?
5.22
